tested on: LOC_OS01G60700-cb002; test: thermal shift delta Tm vs DMSO control; higher = stronger stabilization (binding); conditions: 12.5 µM; protein concentration 2 µM;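 note: purified Escherichia coli-expressed rice kinase domain construct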
Listed here are compounds together with their documented thermal shift delta Tm.
Please report the result as a number followed by the unit.

For this compound ( CCN1CCN(Cc2ccc(Nc3ncc(F)c(-c4cc(F)c5nc(C)n(C(C)C)c5c4)n3)nc2)CC1 ), measured thermal shift delta Tm is 0.59 °C

Others:
For this compound ( CO[C@H]1C[C@@H]2CC[C@@H](C)[C@@](O)(O2)C(=O)C(=O)N2CCCC[C@H]2C(=O)O[C@H]([C@H](C)C[C@@H]2CC[C@@H](O)[C@H](OC)C2)CC(=O)[C@H](C)/C=C(\C)[C@@H](O)[C@@H](OC)C(=O)[C@H](C)C[C@H](C)/C=C/C=C/C=C/1C [Rapamycin (Sirolimus)] ), measured thermal shift delta Tm is 1.04 °C

For this compound ( CC(C)(C)NC(=O)c1cncn1C1CCN(c2ccc(-c3nnc(C(F)(F)F)o3)cn2)CC1 ), measured thermal shift delta Tm is -0.26 °C

====

system: LOC_OS02G17970-cb001; assay: thermal shift delta Tm vs DMSO control; higher = stronger stabilization (binding); settings: 12.5 µM; protein concentration 2 µM
Structures can show the parent of a compound that is named as a salt.
Decision: thermal shift delta Tm >= 0.2 °C yields Condition met, all other cases yield Condition not met.

A selection of reference data follows.
In: In plain terms: is recorded thermal shift delta Tm at least 0.2 °C for O=C(Nc1nc2cccc(-c3ccc(CN4CCS(=O)(=O)CC4)cc3)n2n1)C1CC1 [Filgotinib (GLPG0634)] ?
Out: Condition met

In: In plain terms: is recorded thermal shift delta Tm at least 0.2 °C for CO[C@H]1C[C@@H]2CC[C@@H](C)[C@@](O)(O2)C(=O)C(=O)N2CCCC[C@H]2C(=O)O[C@H]([C@H](C)C[C@@H]2CC[C@@H](OP(C)(C)=O)[C@H](OC)C2)CC(=O)[C@H](C)/C=C(\C)[C@@H](O)[C@@H](OC)C(=O)[C@H](C)C[C@H](C)/C=C/C=C/C=C/1C [Ridaforolimus (Deforolimus, MK-8669)] ?
Out: Condition met

In: In plain terms: is recorded thermal shift delta Tm at least 0.2 °C for CO[C@H]1C[C@@H]2CC[C@@H](C)[C@@](O)(O2)C(=O)C(=O)N2CCCC[C@H]2C(=O)O[C@H]([C@H](C)C[C@@H]2CC[C@@H](O)[C@H](OC)C2)CC(=O)[C@H](C)/C=C(\C)[C@@H](O)[C@@H](OC)C(=O)[C@H](C)C[C@H](C)/C=C/C=C/C=C/1C [Rapamycin (Sirolimus)] ?
Out: Condition met

In: In plain terms: is recorded thermal shift delta Tm at least 0.2 °C for COc1ccccc1-c1cc(Nc2cccc(CS(N)(=O)=O)c2)ncn1 ?
Out: Condition met

In: In plain terms: is recorded thermal shift delta Tm at least 0.2 °C for Oc1cc(CNC(=S)/C=C/c2cc(O)c(O)c(Br)c2)cc(O)c1O ?
Out: Condition met

In: In plain terms: is recorded thermal shift delta Tm at least 0.2 °C for O=C(NC[C@H](O)CO)c1ccncc1Nc1ccc(I)cc1F ?
Out: Condition met

In: In plain terms: is recorded thermal shift delta Tm at least 0.2 °C for Cc1ccc(NC(=O)c2ccc(CN3CCN(C)CC3)cc2)cc1Nc1nccc(-c2cccnc2)n1 [Imatinib Mesylate (STI571)] ?
Out: Condition not met

In: In plain terms: is recorded thermal shift delta Tm at least 0.2 °C for Cc1cnc(Nc2ccc(N3CCN(C)CC3)cc2)nc1Nc1cccc(S(=O)(=O)NC(C)(C)C)c1 ?
Out: Condition met

In: In plain terms: is recorded thermal shift delta Tm at least 0.2 °C for CC(C)(O)CNc1ncc(-c2ccnc(Nc3ccnc(Cl)c3)n2)c(CC2CC2)n1 ?
Out: Condition not met

In: In plain terms: is recorded thermal shift delta Tm at least 0.2 °C for Cn1cc(-c2ccc3nnc(Sc4ccc5ncccc5c4)n3n2)cn1 ?
Out: Condition not met

Others:
In: In plain terms: is recorded thermal shift delta Tm at least 0.2 °C for CC(=O)Nc1cccc(-n2c(=O)n(C3CC3)c(=O)c3c(Nc4ccc(I)cc4F)n(C)c(=O)c(C)c32)c1 ?
Out: Condition not met

In: In plain terms: is recorded thermal shift delta Tm at least 0.2 °C for COc1ccc(Cl)c(Nc2nc3ccccc3nc2NS(=O)(=O)c2cccc(NC(=O)C(C)(C)N)c2)c1 [Pilaralisib (XL147)] ?
Out: Condition met

In: In plain terms: is recorded thermal shift delta Tm at least 0.2 °C for CCc1nc(-c2cccc(C)c2)c(-c2ccnc(NC(=O)c3ccccc3)c2)s1 ?
Out: Condition met

In: In plain terms: is recorded thermal shift delta Tm at least 0.2 °C for Nc1[nH]nc2nnc(-c3c(-c4ccccc4)nn4ccccc34)cc12 ?
Out: Condition met
